Origin of measurements: patent US20180353462A1

testSystem: PASK (Homo sapiens, UniProt Q96RG2)
Construct: made in house
Sequence (Q96RG2 whole entry): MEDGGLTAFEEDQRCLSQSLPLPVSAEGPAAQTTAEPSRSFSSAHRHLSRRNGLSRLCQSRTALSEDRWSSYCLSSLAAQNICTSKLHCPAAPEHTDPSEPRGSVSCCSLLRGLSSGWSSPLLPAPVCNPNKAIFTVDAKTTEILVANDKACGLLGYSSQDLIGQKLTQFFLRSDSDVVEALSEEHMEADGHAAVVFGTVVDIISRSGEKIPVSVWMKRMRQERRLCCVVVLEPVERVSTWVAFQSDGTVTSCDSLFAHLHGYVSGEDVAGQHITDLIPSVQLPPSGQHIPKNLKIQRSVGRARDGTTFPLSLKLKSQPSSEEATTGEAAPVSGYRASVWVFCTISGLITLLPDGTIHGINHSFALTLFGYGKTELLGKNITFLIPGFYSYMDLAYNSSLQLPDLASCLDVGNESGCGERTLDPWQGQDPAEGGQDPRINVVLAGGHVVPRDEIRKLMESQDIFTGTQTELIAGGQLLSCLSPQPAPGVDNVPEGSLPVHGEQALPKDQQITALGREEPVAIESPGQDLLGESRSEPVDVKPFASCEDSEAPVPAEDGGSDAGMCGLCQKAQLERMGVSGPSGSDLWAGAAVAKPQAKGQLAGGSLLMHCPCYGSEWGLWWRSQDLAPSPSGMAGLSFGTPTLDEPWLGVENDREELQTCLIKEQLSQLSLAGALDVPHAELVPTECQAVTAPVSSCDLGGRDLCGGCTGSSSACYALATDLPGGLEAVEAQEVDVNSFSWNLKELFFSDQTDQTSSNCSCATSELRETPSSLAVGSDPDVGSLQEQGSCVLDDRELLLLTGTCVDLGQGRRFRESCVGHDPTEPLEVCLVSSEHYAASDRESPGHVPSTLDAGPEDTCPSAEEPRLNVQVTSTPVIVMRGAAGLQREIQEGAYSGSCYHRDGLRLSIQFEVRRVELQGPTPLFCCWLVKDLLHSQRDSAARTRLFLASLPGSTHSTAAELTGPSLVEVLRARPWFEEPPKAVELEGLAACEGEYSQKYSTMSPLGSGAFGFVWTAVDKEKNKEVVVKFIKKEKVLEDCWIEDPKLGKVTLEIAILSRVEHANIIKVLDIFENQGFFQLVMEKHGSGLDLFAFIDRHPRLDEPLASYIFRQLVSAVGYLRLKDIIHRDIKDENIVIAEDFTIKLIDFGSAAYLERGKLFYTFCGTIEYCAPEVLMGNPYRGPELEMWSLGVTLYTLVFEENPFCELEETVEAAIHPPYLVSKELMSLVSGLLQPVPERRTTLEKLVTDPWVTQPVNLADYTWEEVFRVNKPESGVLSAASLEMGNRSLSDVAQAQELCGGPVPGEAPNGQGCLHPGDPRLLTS
protocolDescription: Kinase competition binding assay, PASK
reportedConditions: Table 1 kinase panel
valueType: IC50

>>> print(df.to_string())
                                   compound  valuetype      result
0  COc1cc(-c2cc(=O)c3c(O)cc(O)c(C/C=C(\C)CCC=C(C)C)c3o2)ccc1O [FBL-03C]       IC50  > 20000 nM
1  COc1cc(-c2cc(=O)c3c(O)c(C/C=C(\C)CCC=C(C)C)c(O)cc3o2)ccc1O [FBL-03A]       IC50  > 20000 nM
2  COc1ccc(-c2cc(=O)c3c(O)c(C/C=C(\C)CCC=C(C)C)c(O)cc3o2)cc1OC [FBL-03D]       IC50  > 30000 nM

* * *

testSystem: PIM-3 (Homo sapiens, UniProt Q86V86)
Construct: full-length constructs were used for small, single domain kinases; T7 phage fusion (most assays) or DNA tag for qPCR (HEK-293-made kinases); made in house
protocolDescription: Kinase competition binding assay, PIM-3
reportedConditions: Table 1 kinase panel
valueType: IC50

                                   molecule      result
0  COc1cc(-c2cc(=O)c3c(O)cc(O)c(C/C=C(\C)CCC=C(C)C)c3o2)ccc1O [FBL-03C]   > 1000 nM
1  COc1ccc(-c2cc(=O)c3c(O)c(C/C=C(\C)CCC=C(C)C)c(O)cc3o2)cc1OC [FBL-03D]  > 30000 nM
2  COc1cc(-c2cc(=O)c3c(O)c(C/C=C(\C)CCC=C(C)C)c(O)cc3o2)ccc1O [FBL-03A]  > 20000 nM
